# target: Cathepsin B (Homo sapiens, UniProt P07858)
# experiment.summary: Inhibition of human liver cathepsin B
Square brackets hold non-standard residues; d marks the D form. Peptide text beside a SMILES is read from it. * marks the point of attachment. Fumaroyl(GlyGlyPheOH) = O=C(/C=C/C(=O)*)NCC(=O)NCC(=O)N[C@@H](Cc1ccccc1)C(=O)O; Chg = N[C@H](C(=O)O)C1CCCCC1; Dap = NC[C@H](N)C(=O)O
measurement.name: pKi
Just the number, please; pKi means minus log10 of the concentration in mol/L.

Study these solved cases before continuing.
{"molecule": "CC(C)[C@H](NC(=O)[C@@H](NC(=O)[C@@H](NC(=O)[C@H](CC(N)=O)NC(=O)/C=C/C(=O)NCC(=O)NCC(=O)N[C@@H](Cc1ccccc1)C(=O)O)C1CCCCC1)C(C)C)C(N)=O (HELM PEPTIDE1{[O=C(/C=C/C(=O)[*:2])NCC(=O)NCC(=O)N[C@@H](Cc1ccccc1)C(=O)O].N.[O=C([C@@H](N[*:1])C1CCCCC1)[*:2]].V.V.[am]}$$$$V2.0)", "reading": 5.85}
{"molecule": "CC(=O)NC[C@H](NC(=O)/C=C/C(=O)NCC(=O)NCC(=O)N[C@@H](Cc1ccccc1)C(=O)O)C(=O)N[C@H](C(=O)N[C@@H](C)C(=O)N[C@H](C(N)=O)C(C)C)C1CCCCC1 ({Fumaroyl(GlyGlyPheOH)}-[Dap](Ac)[Chg]AV-NH2)", "reading": 4.91}
{"molecule": "CC(C)C[C@H](NC(=O)[C@H](Cc1ccccc1)NC(=O)/C=C/C(=O)NCC(=O)NCC(=O)N[C@@H](Cc1ccccc1)C(=O)O)C(=O)N[C@@H](CC(C)C)C(=O)N[C@H](C(N)=O)C(C)C (HELM PEPTIDE1{[O=C(/C=C/C(=O)[*:2])NCC(=O)NCC(=O)N[C@@H](Cc1ccccc1)C(=O)O].F.L.L.V.[am]}$$$$V2.0)", "reading": 4.64}

Lab note: next molecule to report on.
Q. Using the record for CC(C)[C@H](NC(=O)[C@H](C)NC(=O)[C@@H](NC(=O)[C@H](CC(N)=O)NC(=O)/C=C/C(=O)NCC(=O)NCC(=O)N[C@@H](Cc1ccccc1)C(=O)O)C1CCCCC1)C(N)=O (HELM PEPTIDE1{[O=C(/C=C/C(=O)[*:2])NCC(=O)NCC(=O)N[C@@H](Cc1ccccc1)C(=O)O].N.[O=C([C@@H](N[*:1])C1CCCCC1)[*:2]].A.V.[am]}$$$$V2.0) , report its pKi.
A. 4.65

---

Listed here are compounds together with their documented inhibition.
# target: Rhodesain (Trypanosoma brucei rhodesiense)
# experiment.summary: Inhibition of Trypanosoma brucei rhodesiense rhodesain after 12 hrs by fluorescence spectroscopy-based on-bead assay
# Design: concentration or dose not given beside the values
# experimental.setup: concentration not given here
Peptide text beside a SMILES is read from it.
Dear colleague, please return just the value in %, with no unit written.

Sample answers from the record:
{"compound": "CC(C)C[C@H](NC(=O)[C@@H](NC(=O)[C@H](Cc1ccccc1)NC(=O)/C=C/C(=O)N[C@@H](C)C(=O)NCC(=O)N[C@@H](Cc1ccccc1)C(=O)O)C1CCCCC1)C(=O)N[C@H](C(N)=O)C(C)C (HELM PEPTIDE1{[C[C@H](NC(=O)/C=C/C(=O)[*:2])C(=O)NCC(=O)N[C@@H](Cc1ccccc1)C(=O)O].F.[O=C([C@@H](N[*:1])C1CCCCC1)[*:2]].L.V.[am]}$$$$V2.0)", "inhibition (%)": 49}
{"compound": "CC(C)[C@H](NC(=O)[C@H](C)NC(=O)[C@H](Cc1ccccc1)NC(=O)[C@H](Cc1ccccc1)NC(=O)/C=C/C(=O)NCC(=O)NCC(=O)N[C@@H](Cc1ccccc1)C(=O)O)C(N)=O (HELM PEPTIDE1{[O=C(/C=C/C(=O)[*:2])NCC(=O)NCC(=O)N[C@@H](Cc1ccccc1)C(=O)O].F.F.A.V.[am]}$$$$V2.0)", "inhibition (%)": 47}
{"compound": "CC[C@H](C)[C@H](NC(=O)[C@H](CNC(C)=O)NC(=O)/C=C/C(=O)NCC(=O)NCC(=O)N[C@@H](Cc1ccccc1)C(=O)O)C(=O)N[C@@H](CC(C)C)C(=O)N[C@H](C(N)=O)C(C)C (HELM PEPTIDE1{[O=C(/C=C/C(=O)[*:2])NCC(=O)NCC(=O)N[C@@H](Cc1ccccc1)C(=O)O].[O=C([C@H](CN[*:3])N[*:1])[*:2]].I.L.V.[am]}|PEPTIDE2{[ac]}$PEPTIDE1,PEPTIDE2,2:R3-1:R2$$$V2.0)", "inhibition (%)": 60}
{"compound": "CC(C)[C@H](NC(=O)[C@@H](NC(=O)[C@@H](NC(=O)[C@H](CC(N)=O)NC(=O)/C=C/C(=O)NCC(=O)NCC(=O)N[C@@H](Cc1ccccc1)C(=O)O)c1ccccc1)C(C)C)C(N)=O (HELM PEPTIDE1{[O=C(/C=C/C(=O)[*:2])NCC(=O)NCC(=O)N[C@@H](Cc1ccccc1)C(=O)O].N.[Phg].V.V.[am]}$$$$V2.0)", "inhibition (%)": 45}
{"compound": "CC(=O)NC[C@H](NC(=O)/C=C/C(=O)NCC(=O)NCC(=O)N[C@@H](Cc1ccccc1)C(=O)O)C(=O)N[C@@H](CC(C)C)C(=O)N[C@@H](CC(C)C)C(=O)N[C@H](C(N)=O)C(C)C (HELM PEPTIDE1{[O=C(/C=C/C(=O)[*:2])NCC(=O)NCC(=O)N[C@@H](Cc1ccccc1)C(=O)O].[O=C([C@H](CN[*:3])N[*:1])[*:2]].L.L.V.[am]}|PEPTIDE2{[ac]}$PEPTIDE1,PEPTIDE2,2:R3-1:R2$$$V2.0)", "inhibition (%)": 60}

Kindly consider the entry below.
Q. Kindly state the measured inhibition obtained for CC(C)C[C@H](NC(=O)[C@H](C)NC(=O)/C=C/C(=O)NCC(=O)NCC(=O)N[C@@H](Cc1ccccc1)C(=O)O)C(=O)N[C@H](C(=O)N[C@H](C(N)=O)C(C)C)C(C)C (HELM PEPTIDE1{[O=C(/C=C/C(=O)[*:2])NCC(=O)NCC(=O)N[C@@H](Cc1ccccc1)C(=O)O].A.L.V.V.[am]}$$$$V2.0) with Rhodesain (Trypanosoma brucei rhodesiense).
A. 55

---

A collection of compounds and their measured inhibition
# target: Rhodesain (Trypanosoma brucei rhodesiense) (UniProt Q95PM0)
# Sequence (Q95PM0 1-450): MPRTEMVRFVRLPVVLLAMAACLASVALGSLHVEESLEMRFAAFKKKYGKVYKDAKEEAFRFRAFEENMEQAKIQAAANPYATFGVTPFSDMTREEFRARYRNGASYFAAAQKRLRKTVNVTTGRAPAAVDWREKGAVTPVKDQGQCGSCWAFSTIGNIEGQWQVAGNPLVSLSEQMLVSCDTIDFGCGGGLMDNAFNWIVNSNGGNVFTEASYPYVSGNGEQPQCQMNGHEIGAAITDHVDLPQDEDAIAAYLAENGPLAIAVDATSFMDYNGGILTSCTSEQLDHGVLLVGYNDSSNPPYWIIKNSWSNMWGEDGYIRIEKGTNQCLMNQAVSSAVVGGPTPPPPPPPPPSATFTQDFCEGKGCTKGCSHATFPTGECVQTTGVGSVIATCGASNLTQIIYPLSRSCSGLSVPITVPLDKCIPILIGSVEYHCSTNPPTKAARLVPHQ
# experiment.summary: Inhibition of Trypanosoma brucei rhodesiense rhodesain after 12 hrs by fluorescence spectroscopy-based on-bead assay
# Design: concentration or dose not given beside the values
# experimental.setup: concentration not given here
Peptide text beside a SMILES is read from it.
Provide the reading as a plain figure in %.

Example results:
{"compound": "CC(C)C[C@H](NC(=O)[C@H](Cc1ccccc1)NC(=O)[C@H](C)NC(=O)/C=C/C(=O)NCC(=O)NCC(=O)N[C@@H](Cc1ccccc1)C(=O)O)C(=O)N[C@H](C(N)=O)C(C)C (HELM PEPTIDE1{[O=C(/C=C/C(=O)[*:2])NCC(=O)NCC(=O)N[C@@H](Cc1ccccc1)C(=O)O].A.F.L.V.[am]}$$$$V2.0)", "unit.string": "%", "inhibition": 67}
{"compound": "CC(C)C[C@H](NC(=O)[C@H](C)NC(=O)/C=C/C(=O)N[C@@H](C)C(=O)NCC(=O)N[C@@H](Cc1ccccc1)C(=O)O)C(=O)N[C@@H](C)C(=O)N[C@H](C(N)=O)C(C)C (HELM PEPTIDE1{[C[C@H](NC(=O)/C=C/C(=O)[*:2])C(=O)NCC(=O)N[C@@H](Cc1ccccc1)C(=O)O].A.L.A.V.[am]}$$$$V2.0)", "unit.string": "%", "inhibition": 31}

Q. What does the record list as inhibition for CC(C)[C@H](NC(=O)[C@@H](NC(=O)[C@@H](NC(=O)[C@H](Cc1ccccc1)NC(=O)/C=C/C(=O)N[C@@H](C)C(=O)NCC(=O)N[C@@H](Cc1ccccc1)C(=O)O)c1ccccc1)C(C)C)C(N)=O (HELM PEPTIDE1{[C[C@H](NC(=O)/C=C/C(=O)[*:2])C(=O)NCC(=O)N[C@@H](Cc1ccccc1)C(=O)O].F.[Phg].V.V.[am]}$$$$V2.0) ?
A. 77

---

# experiment.summary: Inhibition of Plasmodium falciparum falcipain-2 after 12 hrs by fluorescence spectroscopy-based on-bead assay
# Parameters: concentration or dose not given beside the values
# experimental.setup: concentration not given here
Square brackets hold non-standard residues; d marks the D form. Peptide text beside a SMILES is read from it. * marks the point of attachment. Fumaroyl(AlaGlyPheOH) = C[C@H](NC(=O)/C=C/C(=O)*)C(=O)NCC(=O)N[C@@H](Cc1ccccc1)C(=O)O; Fumaroyl(GlyGlyPheOH) = O=C(/C=C/C(=O)*)NCC(=O)NCC(=O)N[C@@H](Cc1ccccc1)C(=O)O; Chg = N[C@H](C(=O)O)C1CCCCC1; Dap = NC[C@H](N)C(=O)O
measurement.name: inhibition (%)
Numeric only. Scale: %

Please review the entries below; each comes with its answer.
{"compound": "CC[C@H](C)[C@H](NC(=O)[C@H](CCC(N)=O)NC(=O)/C=C/C(=O)N[C@@H](C)C(=O)NCC(=O)N[C@@H](Cc1ccccc1)C(=O)O)C(=O)N[C@@H](CC(C)C)C(=O)N[C@H](C(N)=O)C(C)C (HELM PEPTIDE1{[C[C@H](NC(=O)/C=C/C(=O)[*:2])C(=O)NCC(=O)N[C@@H](Cc1ccccc1)C(=O)O].Q.I.L.V.[am]}$$$$V2.0)", "unit.string": "%", "inhibition": 46}
{"compound": "CC(C)C[C@H](NC(=O)[C@H](Cc1ccccc1)NC(=O)/C=C/C(=O)NCC(=O)NCC(=O)N[C@@H](Cc1ccccc1)C(=O)O)C(=O)N[C@@H](C)C(=O)N[C@H](C(N)=O)C(C)C (HELM PEPTIDE1{[O=C(/C=C/C(=O)[*:2])NCC(=O)NCC(=O)N[C@@H](Cc1ccccc1)C(=O)O].F.L.A.V.[am]}$$$$V2.0)", "unit.string": "%", "inhibition": 45}
{"compound": "CC[C@H](C)[C@H](NC(=O)[C@H](CC(N)=O)NC(=O)/C=C/C(=O)NCC(=O)NCC(=O)N[C@@H](Cc1ccccc1)C(=O)O)C(=O)N[C@@H](CC(C)C)C(=O)N[C@H](C(N)=O)C(C)C (HELM PEPTIDE1{[O=C(/C=C/C(=O)[*:2])NCC(=O)NCC(=O)N[C@@H](Cc1ccccc1)C(=O)O].N.I.L.V.[am]}$$$$V2.0)", "unit.string": "%", "inhibition": 61}
{"compound": "CC(C)[C@H](NC(=O)[C@@H](NC(=O)[C@@H](NC(=O)[C@H](Cc1ccccc1)NC(=O)/C=C/C(=O)N[C@@H](C)C(=O)NCC(=O)N[C@@H](Cc1ccccc1)C(=O)O)C1CCCCC1)C(C)C)C(N)=O (HELM PEPTIDE1{[C[C@H](NC(=O)/C=C/C(=O)[*:2])C(=O)NCC(=O)N[C@@H](Cc1ccccc1)C(=O)O].F.[O=C([C@@H](N[*:1])C1CCCCC1)[*:2]].V.V.[am]}$$$$V2.0)", "unit.string": "%", "inhibition": 45}
{"compound": "CC(=O)NC[C@H](NC(=O)/C=C/C(=O)N[C@@H](C)C(=O)NCC(=O)N[C@@H](Cc1ccccc1)C(=O)O)C(=O)N[C@H](C(=O)N[C@@H](CC(C)C)C(=O)N[C@H](C(N)=O)C(C)C)C1CCCCC1 ({Fumaroyl(AlaGlyPheOH)}-[Dap](Ac)[Chg]LV-NH2)", "unit.string": "%", "inhibition": 56}

// next entry
Q. Entry CC(=O)NC[C@H](NC(=O)/C=C/C(=O)NCC(=O)NCC(=O)N[C@@H](Cc1ccccc1)C(=O)O)C(=O)N[C@H](C(=O)N[C@H](C(=O)N[C@H](C(N)=O)C(C)C)C(C)C)C1CCCCC1 ({Fumaroyl(GlyGlyPheOH)}-[Dap](Ac)[Chg]VV-NH2) has what inhibition?
A. 52
